# key: entry, value: pKd
# Assayed target: T1, PUF4 RNA-binding domain (Saccharomyces cerevisiae, UniProt P25339 537-888)
# T1 sequence: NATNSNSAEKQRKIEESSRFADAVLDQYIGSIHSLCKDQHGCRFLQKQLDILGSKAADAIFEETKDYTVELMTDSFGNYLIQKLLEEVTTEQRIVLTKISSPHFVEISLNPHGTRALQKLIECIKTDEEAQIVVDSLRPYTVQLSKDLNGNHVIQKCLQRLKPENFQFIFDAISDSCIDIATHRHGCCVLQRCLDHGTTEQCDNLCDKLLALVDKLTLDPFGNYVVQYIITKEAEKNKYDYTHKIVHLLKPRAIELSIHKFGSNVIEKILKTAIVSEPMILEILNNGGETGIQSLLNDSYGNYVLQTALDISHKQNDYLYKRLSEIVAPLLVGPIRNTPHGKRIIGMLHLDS
# Protocol notes: Mg; RNA-MaP; 20 mM Na-HEPES pH 7.4, 30 mM KOAc, 0.75 mM MgCl2, 0.1% Tween-20, 5% glycerol, 0.1 mg/mL BSA, 2 mM DTT; 25 C; 0.0125-409.6 nM protein
# Applied conditions: tags: N-His6-TEV cleaved; C-SNAP kept, Cy3B-labelled; label: tethered on chip by stalled RNA polymerase
Quick note: pKd means taking -log10 of the concentration in moles per liter.

Solved cases below.
* Id_ii_S4_P5E.3_K5.2_C5.2_[T-1G]_H5.2_A5.1_F5.1_T5.2_[A12T] (ssRNA) RNA: UUUGACAACUGAUCGUUCUUUCUCGUAUAUUAUUAUUUUCUUUCUCGAUCAGUUGUCUUU | 7.81
* UCUCUUUGUACCUAUCUCUU (ssRNA) [Ib_S1_P3E.1_K3.1_C3.1_H3.1_A3.1_[T5C]_[A6C]_F3.1_T3.1] | 7.06
* UCUCUUUCUACACUAUUACUUCUCUU (ssRNA) [Id_iii_S1_P4E.7_K4.3_C4.3_H4.3_A4.1_F4.1_T4.2_[G10C]] | 5.66
* UCUCUUAGUAUAAUUAUCUCUU (ssRNA) [Ib_S1_P5E.1_K5.1_C5.1_H5.1_[T1A]_A5.1_[T6A]_F5.1_T5.1] | 5.99
* Ic_S4_P4E.1_K4.1_C4.1_H4.1_A4.1_[T5G]_[A6C]_[T7G]_F4.1_[T8C]_[A9C]_T4.1 (ssRNA) RNA: UUUGACAACUGAUCGUUCUUUCUUGUAGCGCCUUCUUUCUCGAUCAGUUGUCUUU | 5.98

Ask | I'd like to know its pKd. The binder in question is Ie_S2_P3E.2_K3.1_C3.2_H3.1_[+2CT]_A3.1_F3.1_T3.2 (ssRNA) RNA: UUUGAUUAAUAUGAUAUCGUUCUUUCUCUUGCUUAUAUAUAUUCUUUCUCGAUAUCAUAUUAAUCUUU
Reply | 7.03

Ask | Record: Ic_S4_P4E.1_K4.1_C4.1_H4.1_A4.1_[T5C]_[A6C]_[T7G]_F4.1_[T8C]_[A9C]_T4.1 (ssRNA) RNA: UUUGACAACUGAUCGUUCUUUCUUGUACCGCCUUCUUUCUCGAUCAGUUGUCUUU
Reply | 6.01

Ask | // repeat for Ic_S2_P4E.1_K4.1_C4.1_H4.1_A4.1_[T5C]_[A6T]_F4.1_[T8C]_[A9C]_T4.1 (ssRNA) RNA: UUUGAUUAAUAUGAUAUCGUUCUUUCUUGUACUUCCUUCUUUCUCGAUAUCAUAUUAAUCUUU and report
Reply | 6.99

Ask | Next: UCUCUUUGUAAUUUCGUCUCUU (ssRNA) [Ic_S1_P5E.1_K5.1_C5.1_H5.1_A5.1_[T5A]_[A7T]_F5.1_[T9C]_[A10G]_T5.1]
Reply | 7.03
